These measurements were taken from PubChem BioAssay.

Test: JHH-DIPG-1 glioma cell viability, MIPE5.0 library, CellTiter-Glo luminescence, qHTS (AID 1347067);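 also: cells exposed to compound for 48 hours before readout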
Conditions: JHH-DIPG-1 glioma viability, CellTiter-Glo ATP luminescence
Records with an inconclusive call do not appear. Activity calls are given as the source filed them. The limit is not given here; nearly all actives have AC50 up to about 26 µM.
resultType: AC50

Use the examples below as a reference point.
* O=C(NOCCO)c1ccc2cncn2c1Nc1ccc(I)cc1F | 0.105 µM (active)
* Nc1ccccc1NC(=O)c1ccc(CNc2nccc(-c3cccnc3)n2)cc1 | 1.18 µM (active)
* CC(C)n1cnc2c(NCCc3ccc(O)cc3)nc(-c3csc4ccccc34)nc21 | 13.2 µM (active)
* Cn1nccc1Nc1nccc(-c2cc3c(s2)C(C)(C)N(CCN2CCOCC2)C3=O)n1 | 2.09 µM (active)
* Cc1ccc2c(c1)C(=O)[C@]1(O)CCN(c3ccccc3)C1=N2 | inactive

Inquiry: Entry "CS(=O)(=O)Nc1cc2occ(NC=O)c(=O)c2cc1Oc1ccccc1" has what AC50?
Reply text: inactive

Inquiry: Entry "O=C(NCCCNC(=O)c1ccc[nH]c1=O)c1cc(-c2ccccc2)on1" has what AC50?
Reply text: 14.8 µM (active)

Inquiry: Entry "C[C@@H]1COCCN1c1cc(-c2ccnn2C)c2ccnc(-c3ccn[nH]3)c2n1" has what AC50?
Reply text: 5.25 µM (active)

Inquiry: Entry "CC(C)(N)C(=O)N[C@H](COCc1ccccc1)C(=O)N1CCC2(CC1)CN(S(C)(=O)=O)c1ccccc12" has what AC50?
Reply text: inactive

Inquiry: Entry "CCN1CCN(Cc2ccc(NC(=O)Nc3ccc(Oc4cc(NC)ncn4)cc3)cc2C(F)(F)F)CC1" has what AC50?
Reply text: 3.72 µM (active)
